Assign self-cleavage to each entry below.
B1: HDV Ribozyme (parent)
chain: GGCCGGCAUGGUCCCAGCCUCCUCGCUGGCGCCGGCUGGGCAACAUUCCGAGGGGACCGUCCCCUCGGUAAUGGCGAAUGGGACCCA

Variants of: B1
Assay: self-cleavage, relative activity (ratio to wild type); higher = more cleavage; co-transcriptional

Measured self-cleavage of GGCCGGCAUGGUCCCAGCCUCCUCGCUGGCGCCGGCUGGGCAACAAUCCGAGGGGACCGUCCCCUCGGUAAUGGCGAAUGGGACCCC [U46A A87C] : 0.744

Briefly, self-cleavage measured for GGCCGGCAUGGUCCCAGCCUCCUCGCUGGCGCCGGCUGGGCAACAUUCAGAGGGGACCGUCCCCUCGGUAAUGGCGAAUCGGACCCA [C49A G80C] : 0.0665

self-cleavage measured on GGCCGGCAUGGUCCCAGCCUCCUCGCUGGCGCCGGCUGGGCAACAUUCCGAGGGGACCGUCGCCUCGGUAAUGGCGAAUGGGGCCCA [C62G A83G] = 0.404

Recorded self-cleavage (variant GGCCGGCAUGGUCCCAGCCUCAUCGCUGGCGGCGGCUGGGCAACAUUCCGAGGGGACCGUCCCCUCGGUAAUGGCGAAUGGGACCCA [C22A C32G] ): 0.0437

For record GGCCGGCAUGGUCCCAGCCUCCUCGCCGGCGGCGGCUGGGCAACAUUCCGAGGGGACCGUCCCCUCGGUAAUGGCGAAUGGGACCCA [U27C C32G] the listed self-cleavage is 0.217

Form field self-cleavage, entry CGCCGGCAUGGUCCCAGCCUCCUCGCUGGCGCCGGCUGGGCAACAAUCCGAGGGGACCGUCCCCUCGGUAAUGGCGAAUGGGACCCA [G1C U46A] : 0.138

self-cleavage measured on GGCCGGCAUGGUCGCAGCCUCCUCGCUGGCGCCGGCUGGGCAACAUUCCGAGGGGACCGUCCCCUCGGUAAUGGCGAACGGGACCCA [C14G U79C] = 0.173

For this variant ( GACCGGCAUGGUCCCAGCCUCCUCGCUGGCGCCGGCUGGGCAACAUUCCGAGGGGACCGUCCCCCCGGUAAUGGCGAAUGGGACCCA [G2A U65C] ), measured self-cleavage is 0.117

Summary for this variant, GGCCGGCAGGGUCCCAGCCUACUCGCUGGCGCCGGCUGGGCAACAUUCCGAGGGGACCGUCCCCUCGGUAAUGGCGAAUGGGACCCA [U9G C21A] : self-cleavage is 0.123

self-cleavage reading for GGACGGCAUGGUCCCAGCCUCCUCUCUGGCGCCGGCUGGGCAACAUUCCGAGGGGACCGUCCCCUCGGUAAUGGCGAAUGGGACCCA [C3A G25U] : 0.0631

Looking up GGCCGGCAUGGUCCCAGCCUCCUCGCUGGCGCCGGUUGGGCAACAUUCCGGGGGGACCGUCCCCUCGGUAAUGGCGAAUGGGACCCA [C36U A51G] , I see its self-cleavage listed as 0.652

So, GGCCGGCAUGGUCCCAGCCUCCUAGCUGGCCCCGGCUGGGCAACAUUCCGAGGGGACCGUCCCCUCGGUAAUGGCGAAUGGGACCCA [C24A G31C] ? Its self-cleavage was 0.0583

Quick note, self-cleavage for GGACGGCAUGGUCCCAGCCUCCUCGCUGGCGCCGGCUGGGCAACAUUCCGAGGGGACUGUCCCCUCGGUAAUGGCGAAUGGGACCCA [C3A C58U] landed at 0.596

Measured self-cleavage, GGCCGGCAUGGUCCCAGCCUCGUCGCUGGCGCCGCCUGGGCAACAUUCCGAGGGGACCGUCCCCUCGGUAAUGGCGAAUGGGACCCA [C22G G35C] : 0.0978

Value of self-cleavage reported for the variant GGCCGGCAUGGUCCCAGCCUCCUCGCUGGCGCCGGUUGGGCAACAUUCCGAGGGGACCGUCCUCUCGGUAAUGGCGAAUGGGACCCA [C36U C63U] is 0.904

The value of self-cleavage measured for the variant GGCCGGCAUGGUCCCAGCCUCCUCUCUGGCGCCGGCUGGGCAACAUUCCGAGGGGACCGUCCCCUCGGUAAUGGUGAAUGGGACCCA [G25U C75U] turned out to be 0.162

Recorded result, GGCCGGCAUGGUCCCAGCCUCCUCGCUGGCGCCGGCUGGGCAACAUUGCGAGGGGACCGUCCCCUCGGUAAUGGCGACUGGGACCCA [C48G A78C] , self-cleavage: 0.199

The variant listed as GGCCGGCAUGGUCCCAGCCUCCUCGCUGGCGCCGGCUGGGCAACAUUCCGAGAGGACGGUCCCCUCGGUAAUGGCGAAUGGGACCCA [G53A C58G] shows self-cleavage equal to 0.935
